Below: a set of entries, each annotated with reported viability.
test: reversal of MRP1-mediated doxorubicin resistance, pilot screen, H69AR cells, doxorubicin co-treatment (AID 601); conditions: H69AR cells + 2 uM doxorubicin, CellTiter-Glo, 72 h; measured here: viability with 2 uM doxorubicin; at 10 µM; stronger effect = lower value
Reply numerically in %, unit not repeated.

Below: 6 compounds and their reported viability.
[
  {
    "compound": "COc1ccc(N(CC(=O)Nc2ccccc2SC)S(C)(=O)=O)cc1OC",
    "viability (%)": 90.7
  },
  {
    "compound": "CCn1c(CNc2ccc(C)cc2)nnc1SCC(=O)NCc1ccccc1",
    "viability (%)": 87.6
  },
  {
    "compound": "Cn1c(=O)c(=O)n(C)c2cc(S(=O)(=O)Nc3ccc4c(c3)OCCO4)ccc21",
    "viability (%)": 88.2
  },
  {
    "compound": "CCc1n[nH]c2c1C(=O)CC(C)(C)C2",
    "viability (%)": 90.6
  },
  {
    "compound": "COCCN(C(=O)CNC(=O)c1ccco1)C(C(=O)NC1CCCCC1)c1cccc(OC)c1 (configuration not stated)",
    "viability (%)": 89.6
  },
  {
    "compound": "Cc1cc(C(=O)N2CCCc3ccccc32)no1",
    "viability (%)": 90.3
  }
]

Switching to the query record.
Q: Quick check: viability of CCCNC(=O)C1=C(C)C(=O)OC12CCC(C)CC2 (configuration not stated) ?
Result: 90.2

---

assay: HUVEC growth inhibition – cell-based, human, primary screen (AID 575); conditions: HUVEC proliferation, CellTiter-Glo luminescence, 72 h; at 10 µM; stronger effect = lower value;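 further: 100% = median of untreated cell wells with 0.1% DMSO on each plate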
Below: a set of entries, each annotated with reported viability.
Reply numerically in %, unit not repeated.

Below: 5 molecules and their reported viability.
[
  {
    "molecule": "CCc1nc(SCc2cc(Cl)ccc2OC)n[nH]1",
    "endpoint": "viability",
    "endpoint.result": 94.2
  },
  {
    "molecule": "CCOC(=O)c1c2n(c3ccc(O)cc13)CCCCC2",
    "endpoint": "viability",
    "endpoint.result": 89.7
  },
  {
    "molecule": "O=S(=O)(c1cccc2c(S(=O)(=O)N3CCCC3)cccc12)N1CCCC1",
    "endpoint": "viability",
    "endpoint.result": 107
  },
  {
    "molecule": "COC(=O)c1cc(Br)c(=O)n(CCc2ccc(F)cc2)c1",
    "endpoint": "viability",
    "endpoint.result": 118
  },
  {
    "molecule": "O=S(=O)(c1ccc(N2CCN(c3ccc(F)cc3)CC2)cc1)N1CCCC1",
    "endpoint": "viability",
    "endpoint.result": 77.2
  }
]

Q: Quick check: viability of O=C(O)CCc1ccc(-c2ccc(F)cc2)n1CCC(=O)O ?
Result: 104

Q: Then what about the molecule CC1Oc2ccccc2N(Cc2ccccc2Cl)C1=O (stereo not drawn) ?
Result: 110

Q: Then what about the molecule Cc1ccc(NC2=NCC(=O)N2c2ccc3c(c2)OCCO3)c(C)c1 ?
Result: 95.7

---

test: growth suppression of yeast trafficking mutant, preliminary HTS, modulators of trafficking downstream of Golgi apparatus project, 1536-format plate, OD 615 nm (AID 637); conditions: yeast transport mutant growth, absorbance 615 nm, 18 h; stronger effect = higher value
endpoint: inhibition (%)
Reply numerically in %, unit not repeated.

Below: 4 compounds and their reported inhibition.
[
  {
    "compound": "CCCCCCNS(=O)(=O)c1ccc(Cl)s1",
    "endpoint.result": 22.9
  },
  {
    "compound": "COc1cccc(Oc2ccc(N)cc2)c1",
    "endpoint.result": -3.33
  },
  {
    "compound": "O=C(Cc1ccc(S(=O)(=O)N2CCCC2)s1)Nc1nc2c(s1)CCCC2",
    "endpoint.result": -6.83
  },
  {
    "compound": "N#C/C(=C\\c1ccc(O)c(O)c1)C(=O)NCCCc1ccccc1",
    "endpoint.result": 5.5
  }
]

Q: Quick check: inhibition of Cc1nc2ccccc2nc1OCC(=O)Nc1cc(C(F)(F)F)ccc1N1CCOCC1 ?
Result: 3.64

Q: Then what about the compound COc1ccc(CNCC(=O)Nc2cc(C)nn2-c2nc(C)cc(C)n2)cc1OC ?
Result: 1.15

Q: Then what about the compound Cc1c(NC(=O)CCc2ccc(S(=O)(=O)N3CCOCC3)cc2)c(=O)n(-c2ccccc2)n1C ?
Result: -8.2

Q: Then what about the compound Cc1csc(NC(=O)CCS(=O)(=O)c2ccc(Br)cc2)n1 ?
Result: 22.7

Q: Then what about the compound O=C(Nc1nnc(CCN2CCCCC2)s1)C1CCCCC1 ?
Result: 4.76

Value source: PubChem BioAssay
